SYSTEM TESTED: mouse ACVR2A (mouse, UniProt P27038 20-135, limits assumed); further: test concentration or dose not given here
Sequence (P27038 20-135 limits assumed): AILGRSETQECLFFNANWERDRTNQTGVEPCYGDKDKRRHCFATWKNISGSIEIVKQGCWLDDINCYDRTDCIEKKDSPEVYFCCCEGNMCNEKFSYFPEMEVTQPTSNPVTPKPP
TEST NAME: ELISA
# Lookup of reported optical density keyed by entry
MEASURED QUANTITY: optical density (OD)

INSERT INTO assay_data (binder, unit_abbrev, endpoint_value) VALUES
  ('367_C03 (antibody, V domains shown, VH/VL only) VH: EVQLLESGGGLVQPGGSLRLSCAASGFTFSSYSMNWVRQAPGKGLEWVANINYNGGYTGYADSVKGRFTISRDNSKNTLYLQMNSLRAEDTAVYYCARSATWHDTALDYWGQGTLVTVSS VL: DIQMTQSPSSLSASVGDRVTITCRASQSILSYVNWYQQKPGKAPKLVIYATTSRASGVPSRFSGSGSGTDFTLTISSLQPEDFATYYCQQSYENPLTFGGGTKVEIK', 'OD', 2.81),
  ('376_B11 (antibody, V domains shown, VH/VL only) VH: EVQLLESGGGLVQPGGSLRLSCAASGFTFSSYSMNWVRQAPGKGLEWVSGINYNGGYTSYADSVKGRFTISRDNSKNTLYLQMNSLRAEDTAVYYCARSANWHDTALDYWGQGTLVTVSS VL: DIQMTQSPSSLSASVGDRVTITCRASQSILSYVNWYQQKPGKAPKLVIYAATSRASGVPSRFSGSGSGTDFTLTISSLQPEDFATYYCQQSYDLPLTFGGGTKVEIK', 'OD', 3.75);
